Assay: reversal of MRP1-mediated doxorubicin resistance, pilot screen, H69AR cells, doxorubicin co-treatment (AID 601)
Conditions: H69AR cells + 2 uM doxorubicin, CellTiter-Glo, 72 h; at 10 µM; stronger effect = higher value
QUANTITY NAME: differential viability (reversal) (%)
Could you give me the number in %? Just the number is fine.

# count of solved cases: 3
{"columns": ["MOLECULE", "differential viability (reversal), %"],
 "data": [
  ["COc1cc([C@@H]2[C@H]3CN(C)CC=C3C(C#N)=C(N)C2(C#N)C#N)cc2c1OCO2", -5.09],
  ["COc1cccc(-c2cc3nc4c(c(N5CCC6(CC5)OCCO6)n3n2)CCCC4)c1", -3.45],
  ["O=C(NCCN1CCCCC1)c1ccc(=O)oc1", 9.61]
]}

Fill in reported differential viability (reversal) for this entry: `Cc1ccc(Nc2nc(N)nc(CN3CCN(Cc4ccc5c(c4)OCO5)CC3)n2)cc1`
2.44

Fill in reported differential viability (reversal) for this entry: `Cc1nnc(N(C)C(=O)c2cccnc2)s1`
1.22

====

A collection of compounds and their measured inhibition
Experiment: 384-well plate pilot, post-Golgi transport modulator project, inhibition of yeast transport mutant growth (AID 636)
Conditions: absorbance 615 nm, about 18 h, stronger effect = higher value
Could you give me the number in %? Just the number is fine.

# count of solved cases: 6
{"columns": ["COMPOUND", "inhibition, %"],
 "data": [
  ["Cc1ccc(S(=O)(=O)c2cc3c(=O)n4ccccc4nc3n(CC3CCCO3)c2=N)cc1C (stereo not given)", -4.86],
  ["CC(C)(C)NC(=O)CN(Cc1cccs1)C(=O)c1csnn1", -7.12],
  ["COc1ccc(C)cc1-n1nnnc1SC/C(O)=C(\\C#N)c1nc2ccccc2[nH]1", -4.11],
  ["CC(O)Cn1cnc2c1c(=O)n(C)c(=O)n2C (stereo not given)", -1.04],
  ["CC(C)(C)c1nc(CN2CCOCC2)ccc1O", -7.03],
  ["C=CCN1C(=O)CS/C1=C(\\C#N)S(=O)(=O)c1ccc(C)cc1", -5.62]
]}

Fill in reported inhibition for this entry: `O=C(Nc1ccccc1)N(CCCN1CCOCC1)Cc1cc2cc3c(cc2[nH]c1=O)OCCO3`
2.13

Fill in reported inhibition for this entry: `N#Cc1ccccc1Cn1c(=O)n(Cc2ccc(C(=O)NCc3ccco3)cc2)c(=O)c2ccccc21`
-1.82

Fill in reported inhibition for this entry: Cc1ccc(OCC(O)Cn2c(NCCc3ccccc3)nc3c2c(=O)[nH]c(=O)n3C)cc1 (stereo not given)
-3.97

Fill in reported inhibition for this entry: `Cn1c(C(=O)NCCC2=CCCCC2)cc2c(=O)n3ccccc3nc21`
0.26

Fill in reported inhibition for this entry: `Cc1nn(-c2ccc(F)cc2)c2sc(C(=O)N3CCCCCC3)cc12`
-2.7

Fill in reported inhibition for this entry: `CCCn1c(SCC(=O)Nc2ccccc2C(=O)OC)nc2c1c(=O)n(C)c(=O)n2C`
-7.47

====

Experiment: reversal of MRP1-mediated doxorubicin resistance, pilot screen, H69AR cells, doxorubicin co-treatment (AID 601)
Conditions: H69AR cells, CellTiter-Glo, 72 h; compound alone cytotoxicity; at 10 µM
Lab note - cut at 90% for viability: Satisfied if strictly below, Not satisfied if not.

{"columns": ["MOLECULE", "LABEL CLASS"],
 "data": [
  ["O=C(NCC(=O)N(CCc1ccccc1)C(C(=O)NC1CCCC1)c1cccnc1)c1ccco1 (stereo not drawn)", "Not satisfied"],
  ["CN1C(C(=O)Nc2ccccn2)=C(O)c2ccccc2S1(=O)=O", "Not satisfied"],
  ["Cc1ccc(NC(=O)CSc2nnc(CCCCCNC(=O)OC(C)(C)C)o2)c(C)c1", "Not satisfied"],
  ["COc1ccc(CC(=O)NCc2cccs2)cc1", "Satisfied"],
  ["CC(=Nc1cccc(O)c1)c1sc2ccccc2c1O", "Satisfied"]
]}

Okay, next one:
Does `CCC(=O)c1ccc(O)cc1` have viability strictly under 90%?
Not satisfied

====

Test: HUVEC growth inhibition – cell-based, human, primary screen (AID 575);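 note: 100% = median of untreated cell wells with 0.1% DMSO on each plate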
Conditions: HUVEC proliferation, CellTiter-Glo luminescence, 72 h; at 10 µM; stronger effect = lower value
Lab note - cut at 90% for viability: T if strictly below, F if not.

These recorded examples may help you get a feel for the data.
{"columns": ["COMPOUND", "LABEL CLASS"],
 "data": [
  ["COc1ccc(-c2nc(SC)n(S(=O)(=O)c3ccccc3)n2)cc1", "T"],
  ["CN(CC(=O)N1CCN(C2CCCCC2)CC1)S(=O)(=O)c1cccc2nsnc12", "F"],
  ["CCCOc1cccc(C(=O)Nc2cc(NC(=O)c3ccco3)ccc2OC)c1", "T"]
]}

Does `CCCCCCC(c1c(C)n(C)n(-c2ccccc2)c1=O)c1c(C)n(C)n(-c2ccccc2)c1=O` have viability strictly under 90%?
F

Does CN1C(=O)C(O)(CC(=O)c2ccc3c(c2)OCO3)c2ccccc21 (configuration not stated) have viability strictly under 90%?
T

Does `COc1ccc(CN(C(=O)CSc2nnc(-c3ccccc3F)o2)c2ccc(F)cc2)cc1` have viability strictly under 90%?
F

Does `CCc1cc2c(=O)c(-c3nc4ccccc4[nH]3)coc2cc1OC(=O)N1CCOCC1` have viability strictly under 90%?
T

Does `CCCC(CCC)n1[nH]c(=O)c2c(C)cc(C)nc21` have viability strictly under 90%?
F

====

Assay: reducers of endogenous Her2 protein level, primary screen, SKBR3 breast tumor cells, AlphaScreen, ATP viability (AID 461);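 note: percent of carrier control wells set as 100% viability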
Conditions: 18-24 h, measured here: SKBR3 viability, ATP luminescence, at 10 µM
A collection of compounds and their measured viability
Could you give me the number in %? Just the number is fine.

# count of solved cases: 8
{"columns": ["COMPOUND", "viability (%)"],
 "data": [
  ["COC(=O)c1cc(Oc2ccc(C(=O)OC)cc2N)cc(C(=O)OC)c1", 95],
  ["CC(C)(C)NC(=O)COC(=O)c1snc(C(=O)NC2CCCCC2)c1N", 86],
  ["Cn1c(=N)c(S(=O)(=O)c2ccccc2)cc2c(=O)n3ccccc3nc21", 83.5],
  ["O=C(Cn1c(C(=O)NCC2CCCO2)cc2sccc21)c1ccccc1 (stereo not given)", 94.5],
  ["O=C1CC(c2ccco2)CC(O)=C1C=NCC1NCCc2ccccc21 (stereo not given)", 78.5],
  ["CC(C)CNC(=O)c1ccccc1NC(=O)CN(c1ccc2c(c1)OCCO2)S(C)(=O)=O", 92],
  ["CN(C)S(=O)(=O)c1ccc(C(=O)N2CCCC2c2nc3ccccc3s2)cc1 (stereo not given)", 98],
  ["CCOC(=O)c1[nH]c(C)c(C(=O)Nc2ccccc2C)c1C", 79.5]
]}

Fill in reported viability for this entry: `CC(=O)N1CCc2cc(S(=O)(=O)CCC(=O)N3CCN(C(=O)c4ccco4)CC3)ccc21`
99

Fill in reported viability for this entry: `CC1(C)Cc2c(sc3c2c(=N)n(Cc2ccco2)c(=O)n3Cc2ccccc2)CO1`
98.5

====

Test: HUVEC growth inhibition – cell-based, human, primary screen (AID 575);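 note: 100% = median of untreated cell wells with 0.1% DMSO on each plate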
Conditions: HUVEC proliferation, CellTiter-Glo luminescence, 72 h; at 10 µM; stronger effect = lower value
A collection of molecules and their measured viability
Could you give me the number in %? Just the number is fine.

# count of solved cases: 3
{"columns": ["MOLECULE", "viability, %"],
 "data": [
  ["Cc1ccccc1NS(=O)(=O)c1cc(C(=O)N2CCCC2)ccc1C", 82.9],
  ["N=c1c(C(=O)NCc2ccccc2)cc2c(=O)n3ccccc3nc2n1Cc1ccco1", 79.2],
  ["CC(=O)Nc1nc(C)c(-c2csc(Nc3ccc(O)cc3)n2)s1", 19.7]
]}

Fill in reported viability for this entry: `O=C(COc1ccc(Cl)cc1)Nc1ncccn1`
106

Fill in reported viability for this entry: CC(C)OP(=O)(c1ccc(N(C)C)cc1)C(O)c1ccccc1F (stereo unspecified)
103

Fill in reported viability for this entry: `Cc1cnc(C(=O)Nc2ccc(N3CCN(C(=O)OC(C)(C)C)CC3)cc2)cn1`
100

Fill in reported viability for this entry: `COc1cccc(NC(=O)c2ccccc2NS(C)(=O)=O)c1`
91.8

Fill in reported viability for this entry: O=C(C1CC2CCC1C2)N1CCN(Cc2ccc3c(c2)OCO3)CC1 (stereo unspecified)
103

====

A collection of compounds and their measured differential viability (reversal)
Assay: reversal of MRP1-mediated doxorubicin resistance, pilot screen, H69AR cells, doxorubicin co-treatment (AID 601)
Conditions: H69AR cells + 2 uM doxorubicin, CellTiter-Glo, 72 h; at 10 µM; stronger effect = higher value
Could you give me the number in %? Just the number is fine.

# count of solved cases: 5
{"columns": ["ITEM SMILES", "UNIT SPEC", "differential viability (reversal)"],
 "data": [
  ["COc1ccc(-c2noc(-c3ccccc3C(=O)Nc3cccnc3)n2)cc1", "%", 13.2],
  ["Cc1ccc(NC(=O)CSc2nnc(CCCCCNC(=O)OC(C)(C)C)o2)c(C)c1", "%", 1.79],
  ["COC(=O)c1ccc2c(=O)n(Cc3ccco3)c(SCC(=O)Nc3ccc(C)c(Cl)c3)nc2c1", "%", -2.23],
  ["CCN(CC)CCOC(=O)C(c1ccccc1)c1ccccc1", "%", 7.5],
  ["CC(=O)Nc1c(C(=O)O)[nH]c2ccccc12", "%", 3.33]
]}

Fill in reported differential viability (reversal) for this entry: `CCOc1ccc(CCNC(=O)CCc2nc(-c3ccc(OC)cc3)no2)cc1OCC`
-5.12
